assay: Half life in rat administered with 10.3 mg/kg, po; type: ADME, organism-based; design: dose 10.3 mg/kg, route oral; conditions: in vivo
observable: half-life (h)

* CCOc1cc(OCC)cc(C(Nc2ccc(C(=N)NO)cc2)C(=O)O)c1 (stereo unspecified) | 5

----------
assay: Clearance in rat at 6.1 mg/kg; assay type: ADME, organism-based; parameters: dose 6.1 mg/kg; details: in vivo
observable: clearance (mL/min/kg)

- CCOc1cc(OCC)cc(C(Nc2ccc(C(=N)N)cc2)C(=O)O)c1 (stereo unspecified): 2.6

----------
assay: Oral bioavailability in rat at 10 mg/kg; assay type: ADME, organism-based; settings: in vivo
In this section, each of the compounds is paired with its reported bioavailability.
observable: bioavailability

• CCOC(=O)C(Nc1ccc(C(=N)NO)cc1)c1cc(OCC)cc(OCC)c1 (configuration not stated) = 100%
• CCOC(=O)C(Nc1ccc(C(=N)NO)cc1)c1cc(OCC)cc(O[C@H]2CCOC2)c1 (some centres not stated) = 15%

----------
assay: Volume of distribution in rat at 3 mg/kg; type: ADME, organism-based; parameters: dose 3 mg/kg; conditions: in vivo, read-out: Vdss
observable: Vd (L/kg)

- CCOc1cc(O[C@H]2CCOC2)cc(C(Nc2ccc(C(=N)N)cc2)C(=O)O)c1 (stereo partly specified): 0.5

----------
molecular target: Coagulation factor X (Homo sapiens, UniProt P00742); assay: Activated partial thromboplastin time; format: functional
Sequence (P00742 41-179 limits assumed): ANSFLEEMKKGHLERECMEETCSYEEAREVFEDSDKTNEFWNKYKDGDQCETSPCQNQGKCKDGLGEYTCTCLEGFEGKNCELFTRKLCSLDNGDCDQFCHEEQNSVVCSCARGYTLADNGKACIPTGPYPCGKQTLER
Sequence (P00742 235-488 limits assumed): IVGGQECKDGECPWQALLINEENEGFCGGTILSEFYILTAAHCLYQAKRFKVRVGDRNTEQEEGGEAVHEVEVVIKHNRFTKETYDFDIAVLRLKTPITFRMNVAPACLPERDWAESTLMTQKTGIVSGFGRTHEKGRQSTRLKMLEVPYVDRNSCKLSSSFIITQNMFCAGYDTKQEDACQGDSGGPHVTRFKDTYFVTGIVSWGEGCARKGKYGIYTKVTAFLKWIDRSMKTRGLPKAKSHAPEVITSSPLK
Binning scheme for 2aPTT: one = under 20 µM, two = from 20 µM up to 30 µM, three = 30 µM and over

• C#Cc1cc(O[C@@H]2CCOC2)cc(C(Nc2ccc(C(=N)N)cc2)C(=O)O)c1 (some centres undefined) = three
• C=Cc1cc(OC2CCOCC2)cc(C(Nc2ccc(C(=N)N)cc2)C(=O)O)c1 (centres undefined) = two
• CCOc1cc(OC2CCN(S(C)(=O)=O)CC2)cc(C(Nc2ccc(C(=N)N)cc2)C(=O)O)c1 (centres undefined) = two
• CCOc1cc(O[C@H]2CCOC2)cc([C@@H](Nc2ccc(C(=N)N)cc2)C(=O)O)c1 = one
• CCOc1cc(-c2cccnc2)cc(C(Nc2ccc(C(=N)N)cc2)C(=O)O)c1 (centres undefined) = three
• CCOc1cc(OC2CCN(C)CC2)cc(C(Nc2ccc(C(=N)N)cc2)C(=O)O)c1 (centres undefined) = two
• C#Cc1cc(O[C@H]2CCOC2)cc(C(Nc2ccc(C(=N)N)cc2)C(=O)O)c1 (some centres undefined) = one
• CCOc1cc(-c2ccccc2)cc(C(Nc2ccc(C(=N)N)cc2)C(=O)O)c1 (centres undefined) = three
• C#Cc1cc(OC2CCOCC2)cc(C(Nc2ccc(C(=N)N)cc2)C(=O)O)c1 (centres undefined) = one
• CCc1cc(OC2CCOCC2)cc(C(Nc2ccc(C(=N)N)cc2)C(=O)O)c1 (centres undefined) = one
• CCOc1cc(O[C@@H]2CCOC2)cc(C(Nc2ccc(C(=N)N)cc2)C(=O)O)c1 (some centres undefined) = three
• CCOc1cc(O[C@H]2CCOC2)cc(C(Nc2ccc(C(=N)N)cc2)C(=O)O)c1 (some centres undefined) = one

----------
biological target: Prothrombin (Homo sapiens)
observable: Ki (µM)

- CCOc1cc(-c2ccccc2)cc(C(Nc2ccc(C(=N)N)cc2)C(=O)O)c1 (stereo not given): 7.3
- CCOc1cc(C(Nc2ccc(C(=N)N)cc2)C(=O)O)ccc1OCc1ccccc1 (stereo not given): 0.085
- COc1cc(C(Nc2ccc(C(=N)N)cc2)C(=O)O)ccc1OCc1ccccc1 (stereo not given): 0.074
- CCOc1cc(O[C@@H]2CCOC2)cc(C(Nc2ccc(C(=N)N)cc2)C(=O)O)c1 (stereo not given in full): 11.3

----------
assay: Clearance in rat at 3 mg/kg; assay type: ADME, organism-based; design: dose 3 mg/kg; conditions: in vivo
observable: clearance (mL/min/kg)

• CCOc1cc(O[C@H]2CCOC2)cc(C(Nc2ccc(C(=N)N)cc2)C(=O)O)c1 (stereo partly specified) = 5.7

----------
experiment: Half life in rat administered with 6.1 mg/kg, iv; assay type: ADME, organism-based; set-up: dose 6.1 mg/kg, route intravenous; conditions: in vivo
observable: half-life (h)

* CCOc1cc(OCC)cc(C(Nc2ccc(C(=N)N)cc2)C(=O)O)c1 (stereo unspecified) | 2.9

----------
test: Half life in rat administered with 10 mg/kg, iv; format: ADME, organism-based; set-up: dose 10 mg/kg, route intravenous; settings: in vivo
In this section, each of the molecules is paired with its reported half-life.
observable: half-life (h)

- CCOC(=O)C(Nc1ccc(C(=N)NO)cc1)c1cc(OCC)cc(O[C@H]2CCOC2)c1 (some centres not stated): 0.9
- CCOC(=O)C(Nc1ccc(C(=N)NO)cc1)c1cc(OCC)cc(OCC)c1 (configuration not stated): 3.5

----------
assay: Oral bioavailability in rat at 6.1 mg/kg; assay type: ADME, organism-based; details: in vivo
observable: bioavailability (%)

* CCOc1cc(OCC)cc(C(Nc2ccc(C(=N)N)cc2)C(=O)O)c1 (stereo unspecified) | 2

----------
target: Coagulation factor VII/tissue factor (Homo sapiens); experiment: Binding affinity to FVIIa/TF
Sequence (P08709 61-212 limits assumed): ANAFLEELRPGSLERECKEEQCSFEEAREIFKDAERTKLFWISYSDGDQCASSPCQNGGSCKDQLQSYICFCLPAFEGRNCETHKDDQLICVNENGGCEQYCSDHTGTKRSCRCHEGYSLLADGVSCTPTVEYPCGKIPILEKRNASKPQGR
Sequence (P08709 213-466 limits assumed): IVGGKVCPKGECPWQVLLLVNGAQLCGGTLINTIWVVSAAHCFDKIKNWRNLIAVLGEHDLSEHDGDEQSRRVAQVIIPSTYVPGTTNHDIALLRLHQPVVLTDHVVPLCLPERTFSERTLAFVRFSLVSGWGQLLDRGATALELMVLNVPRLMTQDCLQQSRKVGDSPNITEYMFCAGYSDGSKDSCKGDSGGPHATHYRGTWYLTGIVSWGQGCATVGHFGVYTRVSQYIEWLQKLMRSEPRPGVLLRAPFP
Sequence (P13726 33-295 partner limits assumed): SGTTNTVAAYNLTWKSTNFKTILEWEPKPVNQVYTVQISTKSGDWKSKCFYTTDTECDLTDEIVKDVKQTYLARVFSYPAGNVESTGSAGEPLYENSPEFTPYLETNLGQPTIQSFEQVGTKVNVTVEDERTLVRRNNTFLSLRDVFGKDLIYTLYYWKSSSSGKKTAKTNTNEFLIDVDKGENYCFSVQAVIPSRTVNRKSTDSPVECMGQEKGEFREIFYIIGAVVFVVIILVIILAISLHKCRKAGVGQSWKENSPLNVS
pKi: −log10 of the molar value.
observable: pKi

- CCOc1cc(C(Nc2ccc(C(=N)N)cc2)C(=O)O)ccc1OCc1ccccc1 (stereo unspecified): 7.55
- CCOc1cc(O[C@H]2CC[C@H](O)CC2)cc(C(Nc2ccc(C(=N)N)cc2)C(=O)O)c1 (stereo partly specified): 6.96
- CCOc1cc(OC2CCN(S(C)(=O)=O)CC2)cc(C(Nc2ccc(C(=N)N)cc2)C(=O)O)c1 (stereo unspecified): 6.74
- CCOc1cc(-c2ccccc2)cc(C(Nc2ccc(C(=N)N)cc2)C(=O)O)c1 (stereo unspecified): 6.89
- CCOc1cc(OC2CCOCC2)cc(C(Nc2ccc(C(=N)N)cc2)C(=O)O)c1 (stereo unspecified): 6.85
- C#Cc1cc(O[C@@H]2CCOC2)cc(C(Nc2ccc(C(=N)N)cc2)C(=O)O)c1 (stereo partly specified): 6.89
- C=Cc1cc(OC2CCOCC2)cc(C(Nc2ccc(C(=N)N)cc2)C(=O)O)c1 (stereo unspecified): 7.16
- COc1cc(C(Nc2ccc(C(=N)N)cc2)C(=O)O)ccc1OCc1ccccc1 (stereo unspecified): 7.21
- C#Cc1cc(O[C@H]2CCOC2)cc(C(Nc2ccc(C(=N)N)cc2)C(=O)O)c1 (stereo partly specified): 7.19
- C#Cc1cc(OC2CCOCC2)cc(C(Nc2ccc(C(=N)N)cc2)C(=O)O)c1 (stereo unspecified): 7.42
- CCOc1cc(-c2cccnc2)cc(C(Nc2ccc(C(=N)N)cc2)C(=O)O)c1 (stereo unspecified): 6.29

----------
assay: Oral bioavailability in rat at 10.3 mg/kg; format: ADME, organism-based; settings: in vivo
observable: bioavailability (%)

• CCOc1cc(OCC)cc(C(Nc2ccc(C(=N)NO)cc2)C(=O)O)c1 (stereo unspecified) = 30

----------
Coagulation factor X (Homo sapiens): recorded Ki for assorted compounds
observable: Ki (nM)

- CCOc1cc(OC2CCN(S(C)(=O)=O)CC2)cc(C(Nc2ccc(C(=N)N)cc2)C(=O)O)c1 (stereo unspecified): 4400
- CCOc1cc(-c2ccccc2)cc(C(Nc2ccc(C(=N)N)cc2)C(=O)O)c1 (stereo unspecified): 1400
- C#Cc1cc(O[C@H]2CCOC2)cc(C(Nc2ccc(C(=N)N)cc2)C(=O)O)c1 (stereo partly specified): 2600
- CCOc1cc(O[C@H]2CCOC2)cc(C(Nc2ccc(C(=N)N)cc2)C(=O)O)c1 (stereo partly specified): 2300
- C#Cc1cc(O[C@@H]2CCOC2)cc(C(Nc2ccc(C(=N)N)cc2)C(=O)O)c1 (stereo partly specified): 15300
- CCOc1cc(C(Nc2ccc(C(=N)N)cc2)C(=O)O)ccc1OCc1ccccc1 (stereo unspecified): 790

----------
target: Trypsin (Homo sapiens, UniProt P07477+P07478+P35030); experiment: Binding affinity to trypsin; type: protein assay
observable: log10 of Ki (log10 of the value in µM)

- CCOc1cc(OC2CCOCC2)cc(C(Nc2ccc(C(=N)N)cc2)C(=O)O)c1 (configuration not stated): 0.85
- CCc1cc(OC2CCOCC2)cc(C(Nc2ccc(C(=N)N)cc2)C(=O)O)c1 (configuration not stated): 0.68
- CCOc1cc(O[C@H]2CC[C@H](O)CC2)cc(C(Nc2ccc(C(=N)N)cc2)C(=O)O)c1 (some centres not stated): 0.60
- CCOc1cc(OCC)cc(C(Nc2ccc(C(=N)N)cc2)C(=O)O)c1 (configuration not stated): 1.23
- CCOc1cc(O[C@H]2CCOC2)cc([C@@H](Nc2ccc(C(=N)N)cc2)C(=O)O)c1: 0.65
- C#Cc1cc(OC2CCOCC2)cc(C(Nc2ccc(C(=N)N)cc2)C(=O)O)c1 (configuration not stated): 0.28
- CCOc1cc(O[C@@H]2CCOC2)cc(C(Nc2ccc(C(=N)N)cc2)C(=O)O)c1 (some centres not stated): 1.00
- CCOc1cc(OC2CCN(C)CC2)cc(C(Nc2ccc(C(=N)N)cc2)C(=O)O)c1 (configuration not stated): 0.93
- CCOc1cc(O[C@H]2CCOC2)cc(C(Nc2ccc(C(=N)N)cc2)C(=O)O)c1 (some centres not stated): 0.86
- COc1cc(C(Nc2ccc(C(=N)N)cc2)C(=O)O)ccc1OCc1ccccc1 (configuration not stated): -0.51
- CCOc1cc(-c2cccnc2)cc(C(Nc2ccc(C(=N)N)cc2)C(=O)O)c1 (configuration not stated): 0.90
- C#Cc1cc(O[C@@H]2CCOC2)cc(C(Nc2ccc(C(=N)N)cc2)C(=O)O)c1 (some centres not stated): 0.82
